tested on: Salmonella enterica typhimurium; test: growth AUC normalised to DMSO control (fraction of control); higher = less growth inhibition, active = hit call of the paper; settings: 20 µM
Assign true (1) to entries whose growth AUC normalised to DMSO control meets or exceeds 1; assign false (0) to the rest.

>>> df
                                   compound                      target_desc  qualitative_label
0  CC(=O)NC[C@H]1CN(c2ccc(N3CCOCC3)c(F)c2)C(=O)O1 [Linezolid]  Salmonella enterica typhimurium          false (0)
1     Nc1ccc(S(N)(=O)=O)cc1 [Sulfanilamide]  Salmonella enterica typhimurium           true (1)
